src = the supplement of paper PMC10126150

System: ATP;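 also: ATP exposure 15 min at 22 °C before imaging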
Experiment: switch fluorescence ratio, 500 uM ATP over buffer (Cy3 cluster intensity, sum of 5 cycles each) (fold (ratio)); higher = stronger signal-on switching upon ATP binding; sequences stand for … in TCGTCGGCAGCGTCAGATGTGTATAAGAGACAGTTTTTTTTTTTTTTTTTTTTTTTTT…TC
Details: aptamer strand: ATP DNA aptamer (quencher-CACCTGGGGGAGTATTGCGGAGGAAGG + anchor), 100 nM annealed; ATP concentration: 500 uM
Answer Not satisfied if switch fluorescence ratio is under 1, and Satisfied if it is 1 or more.

Query: I'd appreciate it if you could say whether `CGTTCAACTC` has switch fluorescence ratio at least equal to 1.
Response: Satisfied

Query: Query `TTATGGTAAC` next
Response: Satisfied

Query: Query `TTGCCGGGGG` next
Response: Satisfied

Query: Query `TTCGATCTGA` next
Response: Not satisfied

* * *

Tested on: ATP;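 also: ATP exposure 15 min at 22 °C before imaging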
Assay: switch fluorescence ratio, 500 uM ATP over buffer (Cy3 cluster intensity, sum of 5 cycles each) (fold (ratio)); higher = stronger signal-on switching upon ATP binding; sequences stand for … in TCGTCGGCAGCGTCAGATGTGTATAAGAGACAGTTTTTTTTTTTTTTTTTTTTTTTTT…TC
Details: aptamer strand: ATP DNA aptamer (quencher-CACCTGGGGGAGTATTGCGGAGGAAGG + anchor), 100 nM annealed; ATP concentration: 500 uM
assayEndpoint: switch fluorescence ratio
Give bare numbers.

Examples with their reported switch fluorescence ratio follow.
TAGGCGGTGT
1.01
TCGGACGGGG
1.03

Hey, quick one: what's switch fluorescence ratio for each of these?
1. CCAAGCCTGT
2. AGAAGTCGGA

Response:
[1.01, 1]

Hey, quick one: what's switch fluorescence ratio for each of these?
1. GGAGTAAGAT
2. GGGGCTTGTA
3. TCCGTAAACG
4. TCACAGTAAT
5. GGAATGTCGG
6. TTGCCTAATG

Response:
[1.3, 1, 1.09, 1.13, 0.962, 0.972]

Hey, quick one: what's switch fluorescence ratio for each of these?
1. TGTGGAAAGG
2. TTGTACGCTA
3. GGTTATGGAG
4. TTTATTTGCA
5. TTGGGTGCCG
6. AGCGGGTTAA
7. TGGATAAGCG
8. TTAGGGGGG

Response:
1: 1; 2: 1.82; 3: 0.964; 4: 0.954; 5: 1.03; 6: 1.02; 7: 1; 8: 1.01

Hey, quick one: what's switch fluorescence ratio for each of these?
1. TAATTCTTGG
2. AGTGAGTGCT
3. CCTCACTAGT
4. CTTGTTATTG
5. AGGTCGTGGG
6. AGCAACCTTT

Response:
1: 0.972; 2: 0.975; 3: 1.09; 4: 0.96; 5: 0.996; 6: 1.16

Hey, quick one: what's switch fluorescence ratio for each of these?
1. AGGGGGGTCA
2. GATCATGTAC
3. TTTCTCAGTG
4. TACGAAATGT
5. AAATTCTGGG
6. TTCCGAAATG
7. GGTCGTCTGC
8. AATACAGTGA

Response:
0.976
1.14
0.969
1.04
0.996
1.63
0.984
0.999

Hey, quick one: what's switch fluorescence ratio for each of these?
1. TGGTTGATTG
2. TATATATGAA
3. GACGAACCGG
4. AATTAAGGGT
5. TCCGGAGAAT

Response:
[0.975, 1.01, 1.05, 0.988, 1.79]

Hey, quick one: what's switch fluorescence ratio for each of these?
1. TGTGTGCAAT
2. CCGAACTGGT
3. GCGTTAAGGA

Response:
[1.08, 1.1, 0.983]

Hey, quick one: what's switch fluorescence ratio for each of these?
1. CTTTTTAGGT
2. ATACTAGGAG

Response:
1: 0.998; 2: 1

Query: So what's the measured switch fluorescence ratio for this one? `ACTCGAGGAT`
Response: 1.03
